Ki values for Serine protease 1 (Bos taurus, UniProt P00760) compiled from several publications are listed below.
Please give a number only; it is taken to be in µM.

Before answering, review these 6 worked examples.
CNC(=N)c1ccc(C[C@H](NS(=O)(=O)c2ccc3ccccc3c2)C(=O)N(C)C2CCCC2)cc1
363
COc1ccc(-c2ccc(C(=O)NC(CCc3ccccc3)C(COC(C)=O)Cc3cccc(C(=N)N)c3)cc2)cc1OC (centres unmarked)
0.046
O=C(O)CN[C@H](CC1CCCCC1)C(=O)N1CCC[C@H]1C(=O)NCC1CCc2n[nH]cc2C1 (some centres unmarked)
19.9
CC1CCN(C(=O)C(Cc2cccc(C(=N)N)c2)NC(=O)CNS(=O)(=O)c2ccc3ccccc3c2)CC1 (racemic)
46
N=C(N)c1ccc(CNC(=O)[C@@H]2CCCN2C(=O)[C@H](NCC(=O)O)C(c2ccccc2)c2ccccc2)s1
0.0003
CC(=O)OCC(Cc1cccc(C(=N)N)c1)C(/C=C/c1ccccc1)NC(=O)c1ccc(-c2ccccc2)cc1 (centres unmarked)
0.129

IN: Give Serine protease 1 (Bos taurus, UniProt P00760) Ki for CN(C)Cc1cccc(-c2ccc(C(=O)NC(Cc3ccccc3)C(CO)Cc3cccc(C(=N)N)c3)cc2)c1 (centres unmarked)
OUT: 1.72

IN: Reported Ki for Serine protease 1 (Bos taurus, UniProt P00760), given CC1CCN(C(=O)C(Cc2cccc(C(=N)N)c2)NS(=O)(=O)c2ccc3ccccc3c2)C(C(=O)O)C1 (racemic) ?
OUT: 1.2

IN: Requested read-out Ki, target or system Serine protease 1 (Bos taurus, UniProt P00760), entry NC(C(=O)N1CCCC1C(=O)NCC1CCc2n[nH]cc2C1)C(c1ccccc1)c1ccccc1 (centres unmarked)
OUT: 217

IN: Please state recorded Ki (tested on Serine protease 1 (Bos taurus, UniProt P00760)) of Cc1ccc(NS(=O)(=O)Cc2ccccc2)c(=O)n1CC(=O)NC1CCc2nc(N)sc2C1 (centres unmarked)
OUT: 260

IN: // lookup Ki | system=Serine protease 1 (Bos taurus, UniProt P00760) | key= COc1ccc2cc(S(=O)(=O)NN(Cc3cccc(C(=N)N)c3)C(=O)N3CCCCCC3)ccc2c1
OUT: 0.053

IN: Query the reported Ki for Serine protease 1 (Bos taurus, UniProt P00760); item: COc1ccc2cc(S(=O)(=O)NN(Cc3cccc(C(=N)NO)c3)C(=O)N3CCCCCC3)ccc2c1
OUT: 17.9

IN: Notebook entry, Serine protease 1 (Bos taurus, UniProt P00760) assay: Ki of CC1CCN(C(=O)C(Cc2cccc(CN)c2)NS(=O)(=O)c2ccc3ccccc3c2)CC1 (racemic) = ?
OUT: 3.4
